# System: E. coli colonies that became resistant to CHL after CIP treatment
# Type: cell-based
# RUN CONDITIONS: colony 12; plates with 2× MIC after 24 h on LB without selection

GIVEN SMILES	Antibiotic resistance
Oc1cc(Cl)ccc1Oc1ccc(Cl)cc1Cl	No
O=C(N[C@H](CO)[C@H](O)c1ccc([N+](=O)[O-])cc1)C(Cl)Cl	Yes
CC1(C)S[C@@H]2[C@H](NC(=O)[C@H](N)c3ccccc3)C(=O)N2[C@H]1C(=O)O	No
[H]/N=C(/N)N[C@H]1[C@H](O)[C@@H](O)[C@H](O[C@@H]2O[C@@H](C)[C@](O)(C=O)[C@H]2O[C@@H]2O[C@@H](CO)[C@H](O)[C@@H](O)[C@@H]2NC)[C@@H](N/C(N)=N\[H])[C@@H]1O	No
